Protein target, amino acids: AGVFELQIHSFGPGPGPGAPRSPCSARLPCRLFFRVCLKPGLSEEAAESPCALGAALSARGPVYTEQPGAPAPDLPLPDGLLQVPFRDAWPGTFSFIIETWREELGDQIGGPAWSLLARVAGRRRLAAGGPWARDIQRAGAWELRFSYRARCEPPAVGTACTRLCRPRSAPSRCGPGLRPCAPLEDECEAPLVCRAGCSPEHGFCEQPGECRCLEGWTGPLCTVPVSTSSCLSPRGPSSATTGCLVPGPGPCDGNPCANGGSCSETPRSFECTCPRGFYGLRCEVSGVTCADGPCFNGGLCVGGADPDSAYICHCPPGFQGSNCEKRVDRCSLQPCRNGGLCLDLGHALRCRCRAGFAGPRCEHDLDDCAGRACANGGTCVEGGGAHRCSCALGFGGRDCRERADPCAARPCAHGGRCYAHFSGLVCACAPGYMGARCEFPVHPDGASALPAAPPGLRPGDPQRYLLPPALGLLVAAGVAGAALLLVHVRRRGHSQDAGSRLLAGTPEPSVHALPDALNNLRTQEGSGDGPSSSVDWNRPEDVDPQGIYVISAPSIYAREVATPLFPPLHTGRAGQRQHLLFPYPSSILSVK
pKd: −log10 of the molar value. Bridge positions count the residues as written; N and C are the ends. Square brackets hold non-standard residues; d marks the D form. Peptide text beside a SMILES is read from it. * marks the point of attachment. DOTA = O=C(O)CN1CCN(CC(=O)O)CCN(CC(=O)*)CCN(CC(=O)O)CC1; Phe(3-F) = N[C@@H](Cc1cccc(F)c1)C(=O)O; Ahx = NCCCCCC(=O)O
assay_readout: pKd

>>> recorded_value("CC(C)C[C@@H]1NC(=O)[C@H](Cc2c[nH]c3ccccc23)NC(=O)[C@@H](NC(=O)[C@H](CC(=O)O)NC(=O)[C@H](CO)NC(=O)CCCCCNC(=O)CN2CCN(CC(=O)O)CCN(CC(=O)O)CCN(CC(=O)O)CC2)CSSC[C@@H](C(=O)N2CCC[C@H]2C(=O)N[C@@H](Cc2cccc(F)c2)C(=O)N[C@@H](CC(=O)O)C(N)=O)NC(=O)[C@H](CC(N)=O)NC(=O)[C@H](Cc2c[nH]c3ccccc23)NC(=O)[C@H](CCC(N)=O)NC1=O [compound 36] ({DOTA-Ahx}-SDCWLQWNCP[Phe(3-F)]D-NH2; disulfide 3-9)")
7.80
